study-target: Epidermal growth factor receptor (Homo sapiens)
experimental-details: EGFR binders on small-molecule microarrays, primary screen, biochemical, small-molecule microarray, 635 nm fluorescence (AID 1104);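 further: score merges 667 nm emission intensity with spot signal to noise over triplicate slides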
measurement-parameters: EGFR binding, higher = more signal
measurement-type: composite z-score

Record excerpt, results attached:
compound	measurement-type	observed-measurement
C=C1C2CC3C(=C4C(CO[C@@H]4[C@H]4CCCN4S(=O)(=O)c4ccccc4[N+](=O)[O-])C4C(=O)N(C)C(=O)C34)CC2C(=O)N1C (some centres not stated)	composite z-score	-0.0553
C=C(/C(=C/C[C@@H](OC(=O)c1ccncc1)c1ccc(OCCO)cc1)c1cc(C(=O)OC)ccc1OC)C(C)C	composite z-score	0.325

Quick batch: composite z-score for everything below.
1. COCC(=C=CC[C@H](O)c1cccc(OCCO)c1)C[C@H](O)c1ccccn1
2. CO[C@H]1O[C@H](CO)[C@@H](OC(=O)Nc2ccccc2-c2ccccc2)[C@H](OC(=O)Nc2ccc3c(c2)OCO3)[C@@H]1OC(=O)Nc1ccc2c(c1)OCO2
3. CCOC(=O)C1=CC[C@@H](c2ccc([N+](=O)[O-])cc2)N(S(=O)(=O)c2ccc(C)cc2)[C@H]1c1ccccc1
4. CCCCC(=C=CC[C@@H](O)c1ccc(OCCO)cc1)C[C@@H](O)COCc1ccccc1
5. COc1ccc([Si](C)(C)[C@H]2[C@H](CCn3cc(CCO)nn3)O[C@@]3(C(=O)N(Cc4ccc(N5C(=O)c6cccc7cccc5c67)cc4)c4ccccc43)[C@@H]2C)cc1

1. -0.366
2. 0.0757
3. 0.764
4. -0.3
5. 0.567

====

experimental-details: small-molecule microarray binders of probe aDKK1, primary screen, biochemical, biotinylated probe, 635/667 nm fluorescence (AID 1099);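 further: score merges 667nm spot fluorescence with signal to noise across triplicate slides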
measurement-parameters: higher = more signal
Quick rule: composite z-score of at least 0.6 means Y, below that means N.

Examples from the recorded data:
compound	answer-label
CN(C)C(=O)[C@@]1(Cc2ccccc2N=[N+]=[N-])COC(c2ccc(OCCCO)cc2)=N1	Y
[N-]=[N+]=NCc1ccccc1C[C@@]1(C(=O)NCCN2CCOCC2)N=C(c2ccc(OCCCO)cc2)O[C@@H]1c1ccccc1N=[N+]=[N-]	Y
COc1ccccc1CN1C(=O)c2ccccc2[C@](Cc2ccccc2I)(C(=O)NC(C)C)[C@@H]1c1ccc(CO)cc1	N
[N-]=[N+]=Nc1ccccc1[C@H]1OC(c2ccc(OCCCO)cc2)=N[C@@]1(CCS(=O)(=O)c1ccccc1)C(=O)N1CCCCC1	Y
COC1(C)CN(Cc2ccccc2Br)[C@H](/C=C/c2ccccc2)[C@H](Cc2ccccc2)O1 (some centres not stated)	N

Is composite z-score at least 0.6? Consider COc1cc2c(cc1O)C(C)N(Cc1cc3c(cc1Br)OCO3)CC2 (configuration not stated)
Y

Is composite z-score at least 0.6? Consider COCCOC(=O)N1C(=O)[C@@]2(c3cc(C#CC4=CCCCC4)ccc31)[C@H](C(=O)N1CCN(c3ncccn3)CC1)[C@H]1C(=O)O[C@H](c3ccccc3)[C@H](c3ccccc3)N1[C@@H]2c1ccc(O)cc1
Y

====

study-target: Homeobox protein Hox-A13 (Mus musculus) (UniProt Q62424)
Sequence (Q62424 whole entry, looked up): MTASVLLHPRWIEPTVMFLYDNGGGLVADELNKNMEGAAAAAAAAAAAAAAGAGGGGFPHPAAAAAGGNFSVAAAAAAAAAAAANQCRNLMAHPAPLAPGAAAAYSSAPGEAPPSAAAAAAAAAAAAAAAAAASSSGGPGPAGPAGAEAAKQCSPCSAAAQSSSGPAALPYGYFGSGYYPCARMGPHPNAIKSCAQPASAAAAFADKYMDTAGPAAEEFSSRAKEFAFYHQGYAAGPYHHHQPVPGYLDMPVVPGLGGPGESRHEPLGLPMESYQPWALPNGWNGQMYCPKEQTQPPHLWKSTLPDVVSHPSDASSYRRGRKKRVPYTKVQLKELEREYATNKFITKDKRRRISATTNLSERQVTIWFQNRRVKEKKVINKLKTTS
experimental-details: inhibitors of HoxA13-DNA binding, primary screen, biochemical, fluorescence polarization, labeled oligonucleotide (AID 1185)
measurement-parameters: 15 min, higher = more signal, called active from +8 up or from −8 down
measurement-type: z-score
Numbers only.

Record excerpt, results attached:
compound	study-target	measurement-type	observed-measurement
NC(=O)N1C(=O)C2C(C1=O)C1C=C(c3ccc(CO)cc3)C2C(C2CC2)N1Cc1sc2ccccc2c1Cl (stereo not drawn)	Homeobox protein Hox-A13 (Mus musculus) (UniProt Q62424)	z-score	-2.31
CCC[C@@H]1C[C@@]1(CCC)[C@@H](NP(=O)(c1ccccc1)c1ccccc1)c1ccc(Cl)cc1	Homeobox protein Hox-A13 (Mus musculus) (UniProt Q62424)	z-score	-1.08

Quick batch: z-score for everything below.
1. CC(C)(C)OC(=O)CC[C@@]1(C(=O)O)N=C(c2ccc(OCCCO)cc2)O[C@@H]1c1ccccc1
2. CC(C)(C)OC(=O)CC[C@]1(C(=O)NCCN2CCOCC2)N=C(c2ccc(OCCCO)cc2)O[C@H]1c1ccccc1
3. Cc1ccc(S[C@]2(C(=O)NCc3ccccc3)CC(=O)N(C(C)C)[C@@H]2c2ccc(CO)cc2I)cc1

-2.94
-4.62
-2.88

====

experimental-details: small-molecule binders of probe aNOTCH3, primary screen, biochemical, small-molecule microarray, 635/667 nm fluorescence (AID 1120);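 further: probe is a biotin-tagged antibody raised against NOTCH3 rather than NOTCH3 protein; score merges spot fluorescence near 667 nm with spot signal to noise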
measurement-parameters: higher = more signal
measurement-type: composite z-score
Answers are plain numbers.

Record excerpt, results attached:
compound	observed-measurement
C=CCN1Cc2ccccc2C[C@@]2(N=C(c3ccc(OCCCO)cc3)O[C@H]2c2ccccc2)C1=O	0.106
CCCCN1CC=CC23O[C@@H]4C=CCOC(=O)[C@@H]4[C@H]2C(=O)N(C(C)CO)[C@@H]3C1=O (some centres undefined)	-0.154
CN(C)CCCN1C(=O)[C@@]2(c3ccc([N+](=O)[O-])cc3)CC(=O)N(CC34CC5CC(CC(C5)C3)C4)[C@@H]2c2ccc(CO)cc21	-0.208

Shifting focus to the compound that follows.
Quick check: composite z-score of C=C1C2CC3C(=C4C(CO[C@@H]4[C@H]4CCCN4S(=O)(=O)c4ccccc4[N+](=O)[O-])C4C(=O)N(C)C(=O)C34)CC2C(=O)N1C (some centres undefined) ?
0.0897

====

experimental-details: anti-His antibody binders, primary screen, artefact control for SMM control protein annotation, biochemical, small-molecule microarray, 635 nm fluorescence (AID 1128);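 further: score merges feature fluorescence with signal-to-noise for each printed compound spot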
measurement-parameters: anti-His Alexa647 antibody binding, higher = more signal
Quick rule: composite z-score of at least 0.5 means True, below that means False.

Examples from the recorded data:
molecule	answer-label
C=C(C(=O)CC[C@H](OC(=O)c1cccnc1)c1cccc(OCCO)c1)C(C)C	False
COc1ccc([Si](C)(C)[C@H]2[C@H](CCn3cc([C@H](O)c4ccccc4)nn3)O[C@@]3(C(=O)N(Cc4ccc(N5CCOC5=O)cc4)c4ccccc43)[C@@H]2C)cc1	False
CCOC(=O)C[C@H]1[C@H](OC(=O)c2ccccc2-c2ccccc2)[C@@H](NC(=O)c2ccc3ccccc3n2)c2cc(OCCCO)ccc2N1C(=O)c1ccc2ccccc2n1	True
Cc1ccc(S[C@]2(C(=O)NC(C)C)CC(=O)N(Cc3ccccc3C(F)(F)F)[C@@H]2c2ccc(CO)cc2I)cc1	True
CO[C@H]1O[C@H](CO)[C@@H](OC(=O)c2ccc(Br)cc2)[C@@H]2OC(=O)[C@@H](Cc3ccc4ccccc4c3)C/C=C/C[C@H](Cc3ccc4ccccc4c3)C(=O)O[C@@H]12	True

# evaluate next
Is composite z-score at least 0.5? Consider O=C1O[C@@H](c2ccccc2)[C@@H](c2ccccc2)N2[C@@H](c3ccc(O)cc3)[C@]3(C(=O)Nc4ccc(C#CCCO)cc43)[C@@H](C(=O)NC[C@H](O)c3ccccc3)[C@H]12
False

====

experimental-details: modulators of HCV replicon luciferase signal, primary screen, HCV replication inhibitor project, Huh7 cells, luciferase reporter (AID 1109);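 further: huh7 hepatoma cells harbouring a luciferase neomycin HCV replicon reporter; luciferase luminescence as measure of HCV replicon replication; test concentration not given here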
measurement-parameters: 48 h, higher = more signal
Would you mind telling me the reported z-score of each entry?

Record excerpt, results attached:
compound	observed-measurement
C=C1C2CC3C(=C4C(CO[C@@H]4[C@H]4CCCN4S(=O)(=O)c4ccccc4[N+](=O)[O-])C4C(=O)N(C)C(=O)C34)CC2C(=O)N1C (stereo partly drawn)	-0.979
CCCCN1CC=CC23O[C@@H]4C=CCOC(=O)[C@@H]4[C@H]2C(=O)N(C(C)CO)[C@@H]3C1=O (stereo partly drawn)	-0.748
O=C(CS)NCCCCCCNC(=O)[C@@H]1C[C@@H]2C(=O)N3CCC[C@H]3C(=O)N2[C@@H]1c1cccc(OCCO)c1	0.0871

Quick batch: z-score for everything below.
1. O=c1cccc(-c2cccc(Cl)c2)o1
2. COCC(=C=CC[C@H](O)c1ccc(OCCO)cc1)C[C@H](O)COCc1ccccc1
3. CN(C)CCCNC(=O)[C@@H]1c2ccccc2C(=O)N(Cc2ccc(OC(F)(F)F)cc2)[C@H]1c1ccc(CO)cc1
4. C=C(CCCC)/C(=C/C[C@@H](OC(C)=O)c1ccc(CO)o1)c1cc(C(=O)OC)ccc1OC
5. CC(C)CCC[C@@H](C)[C@H]1CC[C@@]2(C)C3=C(CC[C@]12C)[C@@]1(C)CC[C@H](OC(=O)c2ccc(Br)cc2)C(C)(C)C1CC3 (stereo partly drawn)

[0.268, -0.313, -2.08, -1.79, 0.132]

====

study-target: Pro-neuregulin-1, membrane-bound isoform (Homo sapiens)
experimental-details: NRG1 binders on small-molecule microarrays, primary screen, psychiatric disease protein project, biochemical, small-molecule microarray, fluorescence 635/667 (AID 1075);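 further: score combines 667 nm spot fluorescence with signal to noise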
measurement-parameters: NRG1 binding, 635 nm fluorescence, higher = more signal
measurement-type: composite z-score
Numbers only.

compound	study-target	measurement-type	observed-measurement
COc1ccc(C(O)C2C=CC3C(=O)N(c4ccccc4)C(=O)C3N2Nc2ccccc2)cc1OCc1ccccc1 (centres undefined)	Pro-neuregulin-1, membrane-bound isoform (Homo sapiens)	composite z-score	1.48
CC(=O)N1Cc2ccccc2C[C@]2(N=C(c3ccc(OCCCO)cc3)O[C@@H]2c2ccccc2)C1=O	Pro-neuregulin-1, membrane-bound isoform (Homo sapiens)	composite z-score	1.04
C=C(/C=C/CNS(=O)(=O)c1ccc(C)cc1)[C@H](O)[C@H]1CCCN1S(=O)(=O)c1ccccc1[N+](=O)[O-]	Pro-neuregulin-1, membrane-bound isoform (Homo sapiens)	composite z-score	0.211

Tell me reported composite z-score for COC(=O)[C@@]1(Cc2ccc(OC)cc2)[C@H]2c3cc(C(=O)N(C)C)n(CCc4c[nH]c5ccc(O)cc45)c3C[C@H]2CN1C(=O)c1ccccc1 , tested with Pro-neuregulin-1, membrane-bound isoform (Homo sapiens).
1.91
